Recorded values, source the NIST ThermoML archive (doi:10.1016/j.jct.2013.09.007).

Method notes: activity coefficient (dimensionless); of the first substance listed, at infinite dilution; xn = mol fraction of the nth substance listed
Experimental parameters: 328.15 K; 101 kPa; Liquid; Chromatography; x1 = 0
Entry class follows activity coefficient: low band (below 2), middle band (2 to below 20), high band (20 or more)

### Prompt Entry CCCCC(C)=O [2-hexanone] + CCCC[n+]1cccc(C)c1.N#C[N-]C#N belongs to which category?
### Response middle band

### Prompt Class (by measured activity coefficient) for C=Cc1ccccc1 [styrene] + CCCC[n+]1cccc(C)c1.N#C[N-]C#N
### Response low band

### Prompt Which bin should I file CCCCCCC [heptane] + CCCC[n+]1cccc(C)c1.N#C[N-]C#N under?
### Response high band

### Prompt Place this compound in its band: CCCCCCCCCC [decane] + CCCC[n+]1cccc(C)c1.N#C[N-]C#N
### Response high band

### Prompt Which class is correct for the following compound? c1ccccc1 [benzene] + CCCC[n+]1cccc(C)c1.N#C[N-]C#N
### Response low band

Continuing:
### Prompt Class (by measured activity coefficient) for CCCCCCCCC [nonane] + CCCC[n+]1cccc(C)c1.N#C[N-]C#N
### Response high band

### Prompt Band assignment needed for c1ccsc1 [thiophene] + CCCC[n+]1cccc(C)c1.N#C[N-]C#N please.
### Response low band

### Prompt Into which category would you place CCc1ccccc1 [ethylbenzene] + CCCC[n+]1cccc(C)c1.N#C[N-]C#N ?
### Response middle band

====

Method notes: activity coefficient (dimensionless); of the first substance listed, at infinite dilution; xn = mol fraction of the nth substance listed
Experimental parameters: 368.15 K; 101 kPa; Liquid; Chromatography; x1 = 0
Kindly apply the following: 1 (yes) if activity coefficient is less than 10, 0 (no) in every other case.

Answered examples (5):
### Prompt Please state whether activity coefficient is below 10 for CCC(C)(C)OC [2-methoxy-2-methylbutane] + CCCC[n+]1cccc(C)c1.N#C[N-]C#N
### Response 1 (yes)

### Prompt Lab log: compare recorded activity coefficient with 10; is it strictly lower for Cc1cccc(C)c1 [1,3-dimethylbenzene] + CCCC[n+]1cccc(C)c1.N#C[N-]C#N ?
### Response 1 (yes)

### Prompt Please state whether activity coefficient is below 10 for CCCCCCCCC [nonane] + CCCC[n+]1cccc(C)c1.N#C[N-]C#N
### Response 0 (no)

### Prompt activity coefficient strictly < 10 for this molecule? C=Cc1ccccc1 [styrene] + CCCC[n+]1cccc(C)c1.N#C[N-]C#N
### Response 1 (yes)

### Prompt Please check: activity coefficient for c1ccncc1 [pyridine] + CCCC[n+]1cccc(C)c1.N#C[N-]C#N , strictly under 10 or not?
### Response 1 (yes)

New cases:
### Prompt Below 10 on activity coefficient? Entry C#CCCCCC [1-heptyne] + CCCC[n+]1cccc(C)c1.N#C[N-]C#N
### Response 1 (yes)

### Prompt Problem: For the molecule c1ccccc1 [benzene] + CCCC[n+]1cccc(C)c1.N#C[N-]C#N , is activity coefficient under 10?
### Response 1 (yes)

### Prompt # strict comparison: is reported activity coefficient < 10? input = CCCC(C)=O [pentan-2-one] + CCCC[n+]1cccc(C)c1.N#C[N-]C#N
### Response 1 (yes)

### Prompt Hello, is activity coefficient of the following molecule strictly smaller than 10? CCCCCCCC [octane] + CCCC[n+]1cccc(C)c1.N#C[N-]C#N
### Response 0 (no)

### Prompt Lab note: confirm whether the reported activity coefficient for this molecule is below 10, equality not counting. molecule: Cc1ccccc1C [1,2-dimethylbenzene] + CCCC[n+]1cccc(C)c1.N#C[N-]C#N
### Response 1 (yes)

====

Method notes: activity coefficient (dimensionless); of the first substance listed, at infinite dilution; xn = mol fraction of the nth substance listed
Experimental parameters: 308.15 K; 101 kPa; Liquid; Chromatography; x1 = 0
Result type: activity coefficient
Numbers only.

Below, each entry is followed by its recorded activity coefficient result.
### Prompt Provide only the value of recorded activity coefficient for CCCOCCC [dipropyl ether] + CCCC[n+]1cccc(C)c1.N#C[N-]C#N
### Response 18.3

### Prompt Give me measured activity coefficient, please, for this compound: C=CCCCCC [1-heptene] + CCCC[n+]1cccc(C)c1.N#C[N-]C#N
### Response 33.1

### Prompt Give the reported value of activity coefficient for this record: CCCCCCC [heptane] + CCCC[n+]1cccc(C)c1.N#C[N-]C#N
### Response 82.8

### Prompt Look up and state reported activity coefficient for C1CCCCCC1 [cycloheptane] + CCCC[n+]1cccc(C)c1.N#C[N-]C#N
### Response 27.3

### Prompt Please give the documented activity coefficient of CCC(C)(C)C [2,2-dimethylbutane] + CCCC[n+]1cccc(C)c1.N#C[N-]C#N
### Response 57.3

// each compound listed below needs its activity coefficient
1. C=CCCCCCC [oct-1-ene] + CCCC[n+]1cccc(C)c1.N#C[N-]C#N
2. CC1CCCCC1 [methylcyclohexane] + CCCC[n+]1cccc(C)c1.N#C[N-]C#N
3. CCOCC [diethyl ether] + CCCC[n+]1cccc(C)c1.N#C[N-]C#N

### Response
1. 49.7
2. 34.1
3. 6.37

Parameter requested: activity coefficient. Apply to each item below.
1. C#CCCCCCC [1-octyne] + CCCC[n+]1cccc(C)c1.N#C[N-]C#N
2. C=CCCC [1-pentene] + CCCC[n+]1cccc(C)c1.N#C[N-]C#N
3. CCC(C)CC [3-methylpentane] + CCCC[n+]1cccc(C)c1.N#C[N-]C#N

### Response
1. 9.22
2. 15.3
3. 50.9

====

Method notes: activity coefficient (dimensionless); of the first substance listed, at infinite dilution; xn = mol fraction of the nth substance listed
Experimental parameters: 318.15 K; 101 kPa; Liquid; Chromatography; x1 = 0
Response field label takes Y when activity coefficient is strictly below 20 and N in all other cases.

The examples below pair each entry with its known result.
### Prompt Say whether its activity coefficient is strictly beneath 20. Entry: C=CCCCCCCCC [1-decene] + CCCC[n+]1cccc(C)c1.N#C[N-]C#N
### Response N

### Prompt Decide: activity coefficient of CCOC(C)(C)C [2-ethoxy-2-methylpropane] + CCCC[n+]1cccc(C)c1.N#C[N-]C#N strictly below 20?
### Response Y

### Prompt Hello, is activity coefficient of the following compound strictly smaller than 20? CCCCCCCC [octane] + CCCC[n+]1cccc(C)c1.N#C[N-]C#N
### Response N

### Prompt Hello, is activity coefficient of the following compound strictly smaller than 20? C#CCCC [1-pentyne] + CCCC[n+]1cccc(C)c1.N#C[N-]C#N
### Response Y

### Prompt Could you please tell me whether activity coefficient recorded for CC1CCCCC1 [methylcyclohexane] + CCCC[n+]1cccc(C)c1.N#C[N-]C#N is less than 20?
### Response N

### Prompt Lab note: activity coefficient threshold 20. Does this compound come in strictly under it? CCCCCCCCCC [decane] + CCCC[n+]1cccc(C)c1.N#C[N-]C#N
### Response N

### Prompt API: query returns whether the compound falls strictly under 20 in activity coefficient. Query: CCCCCCCCC [nonane] + CCCC[n+]1cccc(C)c1.N#C[N-]C#N
### Response N

### Prompt Hello, I'm reviewing records and need to know if activity coefficient of C#CCCCCCC [1-octyne] + CCCC[n+]1cccc(C)c1.N#C[N-]C#N is below 20. Could you check?
### Response Y

***
### Prompt Field: below-cutoff. Rule: recorded activity coefficient strictly less than 20. Subject: C1CCCCC1 [cyclohexane] + CCCC[n+]1cccc(C)c1.N#C[N-]C#N
### Response N

### Prompt Is it true that activity coefficient reported for CCC(C)(C)C [2,2-dimethylbutane] + CCCC[n+]1cccc(C)c1.N#C[N-]C#N is less than 20?
### Response N

### Prompt Determine whether this compound shows activity coefficient lower than 20 (ties excluded): C=CCCC [1-pentene] + CCCC[n+]1cccc(C)c1.N#C[N-]C#N
### Response Y

### Prompt Item CCCOCCC [dipropyl ether] + CCCC[n+]1cccc(C)c1.N#C[N-]C#N : activity coefficient beneath 20, strictly?
### Response Y

### Prompt Strictly below 20 in activity coefficient? C1CCOC1 [tetrahydrofuran] + CCCC[n+]1cccc(C)c1.N#C[N-]C#N
### Response Y

====

Method notes: activity coefficient (dimensionless); of the first substance listed, at infinite dilution; xn = mol fraction of the nth substance listed
Experimental parameters: 328.15 K; 101 kPa; Liquid; Chromatography; x1 = 0
We use 10 as the dividing line for activity coefficient: on or above the line is MET, below is NOT MET.

Reference set (4 entries):
### Prompt Evaluate C=C(C)c1ccccc1 [(1-methylethenyl)benzene] + CCCC[n+]1cccc(C)c1.N#C[N-]C#N : activity coefficient at minimum 10?
### Response NOT MET

### Prompt Decide: activity coefficient of Cc1ccc(C)cc1 [1,4-dimethylbenzene] + CCCC[n+]1cccc(C)c1.N#C[N-]C#N >= 10?
### Response NOT MET

### Prompt In plain terms: is recorded activity coefficient at least 10 for CCCCCC [hexane] + CCCC[n+]1cccc(C)c1.N#C[N-]C#N ?
### Response MET

### Prompt Say whether CCCCCCCC [octane] + CCCC[n+]1cccc(C)c1.N#C[N-]C#N shows activity coefficient of 10 or more.
### Response MET

Continuing:
### Prompt Does the reported activity coefficient for CC1CCCCC1 [methylcyclohexane] + CCCC[n+]1cccc(C)c1.N#C[N-]C#N fall at or above the 10 mark?
### Response MET

### Prompt Check if activity coefficient >= 10 (inclusive). Item: C#CCCCCCC [1-octyne] + CCCC[n+]1cccc(C)c1.N#C[N-]C#N
### Response NOT MET

### Prompt State whether the measured activity coefficient reaches 10, counting equality as reaching it, for C1=CCCCC1 [cyclohexene] + CCCC[n+]1cccc(C)c1.N#C[N-]C#N
### Response NOT MET

### Prompt Reported activity coefficient at or above 10? CCCOCCC [dipropyl ether] + CCCC[n+]1cccc(C)c1.N#C[N-]C#N
### Response MET

### Prompt Please indicate if the recorded activity coefficient for C#CCCCCC [1-heptyne] + CCCC[n+]1cccc(C)c1.N#C[N-]C#N meets or exceeds 10.
### Response NOT MET
